Assay Procedure: PK study
Format: in vivo, cynomolgus
Cond: cynomolgus monkey, plasma, iv, 2 mg/kg, cynomolgus i.v. 2 mg kg^−1; read-out: t1/2 effective
Result Type: half-life
Please make sure the unit comes right after the number.

Retrieve half-life measured for `COC(=O)N1CCN(C(=N)c2cccc(NC(=O)Nc3ccc(S(=O)(=O)NCc4ccc(S(N)(=O)=O)cc4)cc3)c2)CC1` and print it. 62 min

---

Test system: Dd2 P. falciparum parasites
Assay Procedure: In vitro parasite reduction ratio assay (Sanz protocol)
Assay type: cell-based, Plasmodium falciparum
Cond: 10 times IC50, Dd2
Result Type: In vitro lag phase

O=C1C(O)=C([C@H]2CC[C@H](c3ccc(Cl)cc3)CC2)C(=O)c2ccccc21 [atovaquone, reference compound]    > 24 h
CCCCN1CCN(C(=N)c2cccc(NC(=O)Nc3ccc(S(=O)(=O)NCc4ccc(S(N)(=O)=O)cc4)cc3)c2)CC1 [SC81458]    <5 h
C[C@@H]1CC[C@H]2[C@@H](C)C(=O)O[C@@H]3O[C@@]4(C)CC[C@@H]1[C@]32OO4 [Artemisinin]    zero
COC(=O)N1CCN(C(=N)c2cccc(NC(=O)Nc3ccc(S(=O)(=O)NCc4ccc(S(N)(=O)=O)cc4)cc3)c2)CC1 [SC83288]    <5 h
